- Organism: Cavia porcellus
- METHOD_NOTES: Selectivity index, ratio of Ki for sigma2 receptor in guinea pig brain membrane […]
- Format: cell membranes
The label is satisfied for Ratio Ki below 9 and not satisfied for Ratio Ki equal to or exceeding 9.

Reference set (5 entries):
Q: I'd appreciate it if you could check whether "CC(C)OC(=O)[C@@]1(c2ccccc2)C[C@@H]1CN1CCC(O)(c2ccc(Cl)cc2)CC1" has Ratio Ki smaller than 9.
Result: not satisfied

Q: I'd appreciate it if you could check whether COC(=O)C1(c2ccccc2)CC1CN1CCC(O)(c2ccc(Cl)cc2)CC1 (single isomer, unassigned; (+)) has Ratio Ki smaller than 9.
Result: not satisfied

Q: I'd appreciate it if you could check whether "CCCOC(=O)[C@]1(c2ccccc2)C[C@@H]1CN1CCC(O)(c2ccc(Cl)cc2)CC1" has Ratio Ki smaller than 9.
Result: not satisfied

Q: I'd appreciate it if you could check whether "CC(C)OC(=O)[C@]1(c2ccccc2)C[C@@H]1CN1CCC(O)(c2ccc(Cl)cc2)CC1" has Ratio Ki smaller than 9.
Result: not satisfied

Q: I'd appreciate it if you could check whether "CCCOC(=O)[C@@]1(c2ccccc2)C[C@@H]1CN1CCC(O)(c2ccc(Cl)cc2)CC1" has Ratio Ki smaller than 9.
Result: not satisfied

New cases:
Q: I'd appreciate it if you could check whether "COC(=O)[C@]1(c2ccccc2)C[C@H]1CN1CCC(O)(c2ccc(Cl)cc2)CC1" has Ratio Ki smaller than 9.
Result: satisfied

Q: I'd appreciate it if you could check whether "CCOC(=O)[C@@]1(c2ccccc2)C[C@@H]1CN1CCC(O)(c2ccc(Cl)cc2)CC1" has Ratio Ki smaller than 9.
Result: not satisfied

Q: I'd appreciate it if you could check whether "CC(C)OC(=O)[C@@]1(c2ccccc2)C[C@H]1CN1CCC(O)(c2ccc(Cl)cc2)CC1" has Ratio Ki smaller than 9.
Result: not satisfied

Q: I'd appreciate it if you could check whether "CCCOC(=O)[C@]1(c2ccccc2)C[C@H]1CN1CCC(O)(c2ccc(Cl)cc2)CC1" has Ratio Ki smaller than 9.
Result: satisfied

Q: I'd appreciate it if you could check whether "CCOC(=O)[C@]1(c2ccccc2)C[C@H]1CN1CCC(O)(c2ccc(Cl)cc2)CC1" has Ratio Ki smaller than 9.
Result: satisfied

Q: I'd appreciate it if you could check whether "O=C(O)[C@@]1(c2ccccc2)C[C@@H]1CN1CCC(O)(c2ccc(Cl)cc2)CC1" has Ratio Ki smaller than 9.
Result: satisfied

Q: I'd appreciate it if you could check whether "CCOC(=O)[C@@]1(c2ccccc2)C[C@H]1CN1CCC(O)(c2ccc(Cl)cc2)CC1" has Ratio Ki smaller than 9.
Result: not satisfied

Q: I'd appreciate it if you could check whether "COC(=O)[C@@]1(c2ccccc2)C[C@@H]1CN1CCC(O)(c2ccc(Cl)cc2)CC1" has Ratio Ki smaller than 9.
Result: satisfied
